Reported CD3-NFAT Activity by CD3 mAb by item:
# STUDY_SYSTEM: human CD3 on cells (human PBMC; Jurkat TCR/CD3 NFAT reporter cells) (human, UniProt P07766 23-207; P04234 22-171; P09693 23-182)
# Sequence (P07766 23-207, chain 1 of 3): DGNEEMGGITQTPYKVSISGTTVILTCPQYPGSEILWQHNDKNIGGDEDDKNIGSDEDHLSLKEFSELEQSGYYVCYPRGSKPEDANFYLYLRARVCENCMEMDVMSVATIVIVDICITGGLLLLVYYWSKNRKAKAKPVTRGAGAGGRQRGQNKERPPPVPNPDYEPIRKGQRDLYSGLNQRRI
# Sequence (P04234 22-171, chain 2 of 3): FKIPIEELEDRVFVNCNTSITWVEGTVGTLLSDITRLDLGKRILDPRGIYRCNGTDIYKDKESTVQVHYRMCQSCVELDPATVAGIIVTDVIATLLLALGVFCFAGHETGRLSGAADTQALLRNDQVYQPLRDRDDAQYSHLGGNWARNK
# Sequence (P09693 23-182, chain 3 of 3): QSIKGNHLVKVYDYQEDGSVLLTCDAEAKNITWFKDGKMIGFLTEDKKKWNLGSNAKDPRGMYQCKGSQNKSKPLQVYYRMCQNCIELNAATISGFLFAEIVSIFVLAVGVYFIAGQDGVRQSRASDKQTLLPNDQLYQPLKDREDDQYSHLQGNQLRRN
# ASSAY_COMMENT: cell-based or functional assay

Use the examples below as a reference point.
- Hu192A7B9-16 (antibody, V domains shown, humanized mAb) VH: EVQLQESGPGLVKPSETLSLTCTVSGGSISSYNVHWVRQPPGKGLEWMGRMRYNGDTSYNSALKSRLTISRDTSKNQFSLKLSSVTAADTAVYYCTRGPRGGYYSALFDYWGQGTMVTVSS VL: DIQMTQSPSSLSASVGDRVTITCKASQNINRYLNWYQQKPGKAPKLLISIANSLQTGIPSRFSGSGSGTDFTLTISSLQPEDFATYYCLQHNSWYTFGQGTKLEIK: > 50 % SP34
- Hu192A7B9-13 (antibody, V domains shown, humanized mAb) VH: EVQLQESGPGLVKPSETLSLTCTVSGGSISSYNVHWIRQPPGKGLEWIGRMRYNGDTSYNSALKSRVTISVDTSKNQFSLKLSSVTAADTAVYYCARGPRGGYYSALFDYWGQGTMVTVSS VL: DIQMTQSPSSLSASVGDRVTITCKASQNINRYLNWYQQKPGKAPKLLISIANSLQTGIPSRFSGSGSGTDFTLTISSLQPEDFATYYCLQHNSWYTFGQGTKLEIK: ≤ 50 % SP34

Suppose we examine the binder Hu192A7B9-5 (antibody, V domains shown, humanized mAb) VH: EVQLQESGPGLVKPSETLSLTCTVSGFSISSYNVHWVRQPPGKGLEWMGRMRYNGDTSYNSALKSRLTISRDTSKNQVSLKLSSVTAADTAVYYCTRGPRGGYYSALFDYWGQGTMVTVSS VL: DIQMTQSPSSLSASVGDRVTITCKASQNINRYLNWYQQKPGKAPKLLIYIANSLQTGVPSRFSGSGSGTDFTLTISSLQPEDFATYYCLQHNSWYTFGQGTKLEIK ; what CD3-NFAT Activity by CD3 mAb value has been reported? > 50 % SP34
